protocol: yeast display, Sf9 membrane polyspecificity reagent, FACS + sequencing; frameworks hold sequencing errors
attribute_measured: polyreactivity (PSR sort gate)

INSERT INTO assay_data (seq, experimental_result) VALUES
  ('QVQLVETGGGLVQAGGSHRLSCAASGFIIPYYAKGWSRQPPGKERELLAAIDSGGSTNYADSVKGRFTISRDNAKNTVSLQMNRLIPEDTAVYYCAVPSYGVNIWGGFDEYNYWGQGTQVTVSS', 'high polyreactivity'),
  ('QVQLVESGGGLVQAGGSLRLSCAASGRIFYGYTMGWYRQAPGKERELVAAISWSGGSTSYADSVKGRFTISRDNAKNTVYLQMNSLKPEDTAVYYCDVRYPGYRLYWGYTYDYWGQGTQVTVSS', 'high polyreactivity'),
  ('QVQLVESGGGLVQAGGSLRLSCAASGSILYTYAMGWYRQAPGKERELVAAISRSGGSTYYADSVKGRFTISRDTAKNTVYLQMNSLKPEDTAVYYCNAVRYLTRLGRYDYWGQGTQVTVSS', 'high polyreactivity'),
  ('QVQLVESGGGLVQAGGSLRLSCPASGFTIRRNAMGCYRQAPGKERELVAAITRGGGSTYYADSVKGRFTISRDNAKNTVYLQMNSLKPEDTAVYYCSADGYYQYESWGQGTQVTVSS', 'high polyreactivity');

====

protocol: yeast display, Sf9 membrane polyspecificity reagent, FACS + sequencing; frameworks hold sequencing errors
attribute_measured: polyreactivity (PSR sort gate)

INSERT INTO assay_data (seq, attribute_measured, experimental_result) VALUES
  ('QVQLVESGGGLVQAGGSLRLSCAASGRIFFYYAMGWYRQAPGTERELVAAISKSGGRTYYADSVKGRFTISRDNAKNTVYLQMNSLKPEDTAVYYCAAYSAHDSDYWGQGTQVTVSS', 'polyreactivity (PSR sort gate)', 'high polyreactivity'),
  ('QVHLVESGGGLVQAGGSLRLSCAASGLIFRRYAMGWYRQAPGKERELVAVISSGGRTYYADSVKGRFTISRDNAKNTVYLQMNSLKPEDTAVYYCAARTRSYWGTYGSYHYDYWGQGTQVTVSS', 'polyreactivity (PSR sort gate)', 'high polyreactivity'),
  ('QFQLVESGGGLVQAGGSLRLSCADSGRILRFYAMGWYRQAPGKERELVAAISWTGGRTYYADSVKGRFTISRDNAKNTVYLQMNSLKPEDTAVYYCAAEVFTTGSFRRYDYWGQGTQVTVSS', 'polyreactivity (PSR sort gate)', 'high polyreactivity'),
  ('QVQLVESGGGLVQAGGSLRLSCAASGSTFFYYAMGWYRQAPGKDRELVAAISGGGGDTTYADSVKGRFTISRDNAKNTVYLQMNSLKPEDTAVYYCAAVPGSFGSGIFDYWGQGTQATVSS', 'polyreactivity (PSR sort gate)', 'low polyreactivity'),
  ('QVQLVESGGGLVQAGGSLRLSCAASGRIFERYAMGWYRQAPGKERELVAGISISGGGTYYADSVKGRFTISRDNAKNTVYLQMNSLKPEDTAVYYCAATFPREEYGYWGQGTQVTVSS', 'polyreactivity (PSR sort gate)', 'low polyreactivity'),
  ('QVQLVESGGGLVQAGGSLRLSCAASGSTLYRNAMGWYRQAPGKERELVAAISSSGGTTFYADSVKGRFTISGDNAKNTVYLQMNCLKPEDSAVYYCIRTARKLRTVHSSVVGLDYWGQGTQVTVSS', 'polyreactivity (PSR sort gate)', 'low polyreactivity'),
  ('QVQRVESGGGLVQAGGSLRLSCAASGSIFAVYAMGWYRQAPGNERELVAAINRSGDSTYFADSVKGRFTISRDNAKNTVYLQMKSLKPEDTAVYYCAADWYWWYTRSWVDYWGQGTQVTVSS', 'polyreactivity (PSR sort gate)', 'high polyreactivity'),
  ('QVQLVESGGGLVQAGGSLRLSCAASGSTFVRYDMGWYRQAPGKERELVADISWSGVSTYADSVKGRFTISRDNAKNTVYLQMNSLKPEDTAVYYCAKDSDLYQRGGYYWGQGTQVTVSS', 'polyreactivity (PSR sort gate)', 'low polyreactivity'),
  ('QVQLVESGGGLVQAGGSLRLSSPASGSTYVVYAMGWYRPAPGKERELVADITRSGGSTYYADSVKGRFTISRDNAKNTVYLQMNSLKPEDSAVYYCAAVRRNGPYKYYYWGQGTQVTVSS', 'polyreactivity (PSR sort gate)', 'high polyreactivity'),
  ('QVQLVESGGGLVQAGGSLRLSCAASGRIFTHNAMGWYRQAPGKERELVAAISSIGGSTYYADSVKGRFTISRDNAKNTVYLQMNSLKPEDTAVYYCAVKRPLYGDSEYYYWGQGTQVTVSS', 'polyreactivity (PSR sort gate)', 'low polyreactivity'),
  ('VVQLVESGGGLVQAGGRLRLSCAASGIIFGRYAMGWYRQAPGKERELVASITGNGSTTYYADSVKGRFTISRDNAKNTVYLQMNSLKPDDTAGYYCAADIVVGSPSAEFDYWGQGTQVTVSS', 'polyreactivity (PSR sort gate)', 'low polyreactivity');

====

protocol: yeast display, Sf9 membrane polyspecificity reagent, FACS + sequencing; frameworks hold sequencing errors
attribute_measured: polyreactivity (PSR sort gate)

INSERT INTO measurements (seq, attribute_measured, experimental_result) VALUES
  ('QVQLAESGGGLVQAGGSLRLICAASGFTFSAYAMGWYRQAPGKERELVAAINTSGGSTYYADSVKGRFTISRDNAKNTVYLQMKSLKPEDTAVYYCASKYASLDRRRRKYDYWGQGTQVTVSS', 'polyreactivity (PSR sort gate)', 'high polyreactivity'),
  ('QVQLVESGGGLVQAGGSLRLSCAASGRIFIYNAMGWYRQAPGKEMELVAAISWSGGSTYYADSVKGRFTISRDNAKNTVYLQMNSLKPEDTAVYYCNARYYGPSWNSYDYWGQGTQVTVSS', 'polyreactivity (PSR sort gate)', 'high polyreactivity'),
  ('QVQLVESGGGLVQAGGSLRLSCAASGSIFKVYAMGWYRQAPGKEREIVAAITSSDSNTNYADSVKGRFTISRDNEKNTVYLQMNSLKPEDTAVYYCNARIYTRRYVPHYGFNYWGQGTQVTVSS', 'polyreactivity (PSR sort gate)', 'low polyreactivity'),
  ('QVQLVESGGGLVQAGGSLRLSCAASGSIFAHNAMGWYRKAPGKERELVAAISSGGSTNYADSVKGRFTISRDNAKNTVYLQMISLKPEDTAVYYCAAVQYAPKWWGEYDYWGQGTQVTVSS', 'polyreactivity (PSR sort gate)', 'low polyreactivity'),
  ('HVQLQESGGGLVQACGSQRLSCAASGSISEGQDMGRYRLAPGKEREFVAGIAPGATTYYADSVKGRFTISRDNAKITVYLQMNSLIPEDNAVYYCAARSVTETDHDYWGQGTQVTVSS', 'polyreactivity (PSR sort gate)', 'low polyreactivity'),
  ('QVQLVESGGGLVQAGGSLRLSCAASGSIFGSYAMGWYRQAPGKERELVAAIRSGGGTYYADSVKGRFTISRDNAKNTVYLQMNSLKPEDTAVYYCAAGDGFYFSFYIYDYWGQGTQGTVSS', 'polyreactivity (PSR sort gate)', 'low polyreactivity'),
  ('QVQLVESGGGLVQAGGSLRLSCAASGRIFGPYAMGWYRQAPGTERELVAAIRASSSSTYYADSVKGRFTISRDNAKNTVYLQMNSLKPEDTAVYYCAADWYYGYAWKYGYWGQGTQVTVSS', 'polyreactivity (PSR sort gate)', 'low polyreactivity'),
  ('QVQLVESGGGLVQAGGSLRLSCAASGITFQGYTIGWYRQAPGKERELVAAISSNGGRTYYADSVKGRFTISRDNAKNTVYLQMNSLKPEDTAVYYCAARKWRLIVDYWGQGTQVTVSS', 'polyreactivity (PSR sort gate)', 'high polyreactivity'),
  ('QVQLVESGGGLVQAGGSIRLTCTPSGIIFGTYAMGWYIQAPGKERELVAAISSSGVSTYYADSVKGRFTISRDNAKNTVYLQMNSLKPEDTAVYYCNARGSNGRSDYDYWGQCTQVTVSS', 'polyreactivity (PSR sort gate)', 'high polyreactivity'),
  ('QLQLVESGGGLVQAGGSLRLSCAASGFIFSTYAMGWYRQAPGKERELVAAISRSGGSTYYADSVKGRFTISRDNAKNTVYLQMNSLKPEDTAVYYCNLSQAAFRTGYDYWGQGTQVTVSS', 'polyreactivity (PSR sort gate)', 'high polyreactivity'),
  ('QVQLVESGGGLVQAGGSLRLSCAASGSTFSDYAMGWYRQAPGKERELVADISSDGSTYYADSVKGRFTISRDNAKNTVYLQMNSLKPEDTAVYYCNAGYPDYDWTWWHISYDYWGQGTQVTVSS', 'polyreactivity (PSR sort gate)', 'low polyreactivity');

====

protocol: yeast display, Sf9 membrane polyspecificity reagent, FACS + sequencing; frameworks hold sequencing errors
attribute_measured: polyreactivity (PSR sort gate)

INSERT INTO assay_data (seq, experimental_result) VALUES
  ('QVQLVESGVGLVQAVGSLRISCAASGRIFQPYAMGWYRQAPGNERELVARITRRGVSTYYADSVKGRFTISRENAKNTVYLQMNSLKPEDTAVYYCAAELFGGYYYWGLGTQVTVSS', 'high polyreactivity'),
  ('QVQLVESGGGLVQAGGSLRLSCAASGSIFYQNAMGWYRQAPGKERELVAAITSDGSTYYADSVKGRFTISRDNAKNTVYLQMNSLKPEDNAVYYCAAEYYVHRYDYWGQGTQVTVSS', 'low polyreactivity'),
  ('QVQLVESGGGLVQAGGSLRLSFAASGITFSSYAMGLYRQAPGKERELVARISTDADTYYADSVKGRFTISRDNAKNTVYLQMNSLKPEDTAVYYCAAEDYWDFDYWGQGTQVTVSS', 'low polyreactivity'),
  ('QVQLVESGGGLVQAGGSLRLSCAASGIIFWWYAMGWYRQAPGKEMELVAAISGTGGSTYYADSVKGRFTISRDNAKNTVYLQMNSLKPEDTAFYYCAARGKSSSYYDYDYWGQGTQVTVSS', 'low polyreactivity'),
  ('QVQLVESGGGLVQAGGSLRLSCAASGRIFGNNAMGWYRQAPGKERELVAAISWSARSTYADSVKGRFTISRDNAKNTVYLQMNSLKPEVTAVYYCNADSAARKGWPIYGYWGQGTKVTVSS', 'high polyreactivity'),
  ('QVQLVETGGGLVQAGGSLRLSCAASGRTFRYNAMGWYRQAPGKERELVAAITGSGGSTYYADSVKGRFTISRDNAKNTVYLQMNSLKPEDTAVYYCARAYSYRLYPYGSWGQGTQVTVSS', 'high polyreactivity'),
  ('QVQLVESGGGLDQAGGSLRLSCAASGFIFSYYTMGWYRHAPGKERELVAAIRSSGGSTYADSVKGRFTISRDNAKNTVYLQMNSLKPEDTAVYYCAAESYYPAGIRGYWGQGTQVTVSS', 'high polyreactivity'),
  ('QVQLVESGGGLVQAGGSLRLSCAASGLIFAYYAMGWYRQAPGKERELVAAISWSGDNTYYADSVKGRFTISRDNAKNTVYLEMNSLKPEDTAVYYCNVDTYGAWSWYYGLHHMDYWGQGTQVTVSS', 'low polyreactivity'),
  ('QVQLVESGVGLVQAGGSHRLSCSASGSIIEENSMGWYRQAPGKERELVAAITIGGRTNYADSVKGRFTISRDNAKNTVYLQMNSLKPEDTAVYYCAADLSSNKYFRFWTRYYYWGQGTQVTVSS', 'low polyreactivity'),
  ('QVQLVESGGGLVQAGGRLRLRCAASGIIFTAYVMGWYRQAPGKERELVADITSGDGSTYYADSVKGRFTISRDNAKNTVYLQMNSLKPEDTAVYYCAADYGQLVFDSYRREYDYWGQGTQVTVSS', 'low polyreactivity'),
  ('QVQLVESGGGLVQAGGSLRLSCAASGLTFQYNTMGWYRQAPGKERELVARINWGGDSTYYADSVKGRFTISRDNAKNTVYLQMNSLTPEDTAVYYCAAPGYSGRYGYYTYYLYDYWGQGTQVTVSS', 'low polyreactivity');
